Tested on: U-251
Test: Growth inhibition of Homo sapiens (human) U251 cells at 10 uM after 48 hr by SRB assay
Type: functional
Conditions: U-251, 48 h, read-out: GI
Test Readout: inhibition of growth at 10 µM (%)
One number for each entry, in %.

Some compounds with recorded inhibition of growth at 10 µM:
{"Smiles Entry": "COc1ccc(OC)c(/C=C/c2nnc(Nc3ccc(Cl)cc3)o2)c1", "Subject Of Test": "U-251", "inhibition of growth at 10 µM [%]": 58.2}
{"Smiles Entry": "COc1ccc(OC)c(/C=C/c2nnc(S)n2-c2ccc(Cl)cc2)c1", "Subject Of Test": "U-251", "inhibition of growth at 10 µM [%]": 46.7}
{"Smiles Entry": "COc1ccc(OC)c(/C=C/C(=O)N/N=C/c2ccc(Cl)cc2)c1", "Subject Of Test": "U-251", "inhibition of growth at 10 µM [%]": 81.6}

Recorded inhibition of growth at 10 µM for `COc1ccc(OC)c(/C=C/C(=O)N/N=C/c2ccccc2)c1` , please?
56.5
